Test system: rat kidney
Test: Rat nephrotoxicity model: kidney histopathology (H&E)
Format: in vivo, Sprague-Dawley rats
Conditions: rats, 14 d once-daily, 100 mg/kg
MEASUREMENT_KIND: Histopathology score (0 to 5 Scale): Casts

MOLECULE | TEST_RESULT
NC[C@@H]1O[C@H](O[C@H]2[C@@H](O)[C@H](O[C@@H]3[C@@H](O)[C@H](N)C[C@H](N)[C@H]3O[C@H]3O[C@H](CO)[C@@H](O)[C@H](O)[C@H]3N)O[C@@H]2CO)[C@H](N)[C@@H](O)[C@@H]1O [Paromomycin, paromomycin] | 2.6 +/− 0.5
NC[C@H]1O[C@H](O[C@H]2[C@H](O)[C@@H](O[C@H]3O[C@H](CO)[C@@H](O)[C@H](N)[C@H]3O)[C@H](N)C[C@@H]2N)[C@H](N)C[C@@H]1O [Tobramycin, tobramycin] | 1.8 +/− 0.8
NCC[C@H](O)C(=O)N[C@@H]1C[C@H](N)[C@@H](O[C@H]2O[C@H](CN)[C@@H](O)[C@H](O)[C@H]2O)[C@H](O)[C@H]1O[C@H]1O[C@H](CO)[C@@H](O)[C@H](N)[C@H]1O [amikacin] | 0 +/− 0
CN[C@@H]1[C@@H](O[C@H]2O[C@H](CO)[C@@H](N)[C@H](O)[C@H]2O)OC2C[C@@H](N)[C@@H](O[C@H]3[C@H](O)[C@@H](O)[C@H](N)C[C@@H]3N)OC2[C@@H]1O (stereo partly shown) [Apramycin, apramycin] | 1.4 +/− 0.5
